Below: a set of entries, each annotated with reported folding stability dG.
B1: EHEE_rd2_0196 (parent)
chain: TETRTFDSEEEAKKAQKEAEKQGRTVTITRRDDRWEVRFD

# Variants of: B1
# Test Method Notes: folding stability dG (cDNA display proteolysis); higher = more stable
# Assay Setup: PBS, room temperature
Please respond with the number in kJ/mol and leave the unit unwritten.

E20C 11.7
V26D 0.502
K17I 13.5
E10S 9.13
E9M 9.97

Given the variant T29S , write its reported folding stability dG.
11.4

Supply recorded folding stability dG for G23M here.
6.57
